# target or test system: GlyT2 WT (Homo sapiens)
# Sequence (Q9Y345 1-797): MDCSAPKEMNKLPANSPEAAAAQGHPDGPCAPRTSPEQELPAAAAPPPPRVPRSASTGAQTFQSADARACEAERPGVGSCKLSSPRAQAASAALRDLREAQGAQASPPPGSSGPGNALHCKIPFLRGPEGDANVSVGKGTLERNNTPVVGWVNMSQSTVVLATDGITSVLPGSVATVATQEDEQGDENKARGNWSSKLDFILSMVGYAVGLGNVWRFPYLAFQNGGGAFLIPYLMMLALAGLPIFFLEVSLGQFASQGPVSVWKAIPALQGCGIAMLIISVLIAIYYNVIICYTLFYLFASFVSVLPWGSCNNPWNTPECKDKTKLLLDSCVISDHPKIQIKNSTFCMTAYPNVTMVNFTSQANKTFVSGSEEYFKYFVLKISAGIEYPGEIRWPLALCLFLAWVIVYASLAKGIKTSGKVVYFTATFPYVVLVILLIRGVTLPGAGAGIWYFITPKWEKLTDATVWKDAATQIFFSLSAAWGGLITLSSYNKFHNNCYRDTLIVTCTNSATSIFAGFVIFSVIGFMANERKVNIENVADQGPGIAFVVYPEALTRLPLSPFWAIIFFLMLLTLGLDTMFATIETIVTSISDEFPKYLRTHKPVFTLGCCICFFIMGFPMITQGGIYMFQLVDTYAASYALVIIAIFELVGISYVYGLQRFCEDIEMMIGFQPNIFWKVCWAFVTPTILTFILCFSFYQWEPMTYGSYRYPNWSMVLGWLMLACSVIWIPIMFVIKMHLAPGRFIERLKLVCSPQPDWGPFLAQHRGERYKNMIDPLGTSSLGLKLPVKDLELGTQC
# condition parameters: read-out: Glycine EC50, glycine transport, mean ± SEM
pEC50: −log10 of the molar value.
measurement kind: pEC50

NCC(=O)O : 4.84

====

# target or test system: GlyT2 T634A mutant (Homo sapiens, UniProt Q9Y345, T634A)
# condition parameters: read-out: Glycine EC50; glycine transport, GlyT2 T634A (vestibule allosteric site)
measurement kind: EC50 (µM)

NCC(=O)O [Glycine] : 28.6

====

# target or test system: GlyT2 V432A mutant (Homo sapiens, UniProt Q9Y345, V432A)
# assay explanation: Glycine transport currents, two electrode voltage clamp, oocytes expressing GlyT2 V432A
# condition parameters: glycine transport, GlyT2 V432A (TM5)
measurement kind: EC50

NCC(=O)O : 114 µM

====

# target or test system: GlyT2 F428A mutant (Homo sapiens, UniProt Q9Y345, F428A)
# Construct: expressed in transfected cells; host or cells: Xenopus laevis oocytes (cRNA injection)
# assay explanation: Glycine transport currents, two electrode voltage clamp, oocytes expressing GlyT2 F428A
# Type: cell-based
# condition parameters: GlyT2 F428A; footnote b
measurement kind: % Max. inhibition (% inhibition at the highest concentration of inhibitor used)

CCCCCCCC/C=C\CCCCCCCC(=O)O[C@H](CC(=O)[O-])C[N+](C)(C)C [oleoyl L-Carnitine, reference compound] : 22.7 ± 3.0^b (p=0.0001) %
CCCCC/C=C\C/C=C\C/C=C\C/C=C\CCCC(=O)NCC(=O)O [N-arachidonyl Glycine, reference compound] : 64.7 ± 6.6^b (p=0.9998) %
CCCCCCCC/C=C\CCCCCCCC(=O)N[C@@H](CCCCN)C(=O)O [oleoyl l-Lysine] : 39.2 ± 2.3^b (p=0.0001) %
CCCCC=CCCCCCCCC(=O)NCC(=O)O [C14 ω5 Glycine] : 33.4 ± 3.0^b (p=0.0007) %
